This collection of values is drawn from PubChem BioAssay (NCI).

- Test system: CCRF-CEM leukemia
- Assay: NCI-60 one-dose screen, 48 h (100 = growth as untreated, 0 = no growth, -100 = all killed)
- Run conditions: 10 µM
The panel holds about 83,000 compounds, 20% with a hit somewhere; the sample as a whole holds those more often.
Reported metric: growth (%)
Numbers only, in %.

COC(=O)CCn1c(-c2ccc(-n3cc(-c4ccc(O[C@H]5O[C@@H]6OC7(C)CC[C@H]8[C@H](C)CC[C@@H]([C@H]5C)[C@@]68OO7)cc4)nn3)cc2)nc2ccccc21 | 28.1
C[C@H]1[C@@H](CC(=O)N[C@@H](Cc2coc3ccccc23)B(O)O)O[C@@H]2OC3(C)CC[C@H]4[C@H](C)CC[C@@H]1[C@@]24OO3 | -10.3
CC(C)N=C([Se])NC(=O)c1ccccc1 | 5.47
COC(=O)C[C@](O)(CCC(C)C)C(=O)O[C@@H]1C(OC)=C[C@]23CCCN2CCc2cc4c(cc2[C@H]13)OCO4 | -12

Turning to the following compound.
Please look at this compound and report its growth: `C#CCCCN(CCNc1ccnc2cc(Cl)ccc12)C(=O)CCC(=O)O[C@@H]1O[C@@H]2OC3(C)CC[C@H]4[C@H](C)CC[C@@H]([C@H]1C)[C@@]24OO3` 24.4
